- procedureText: chemical genetic growth profiling, strain panel (AID 1159580);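 note: tested at 20 µM; growth read once vehicle control cultures reached saturation at 30 °C; 1 = growth at the plate median or of vehicle wells; lower values mean less growth of the strain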
- details: S. cerevisiae deletion strains, growth OD, locus YDL185W, strain tfp1, hits give low values
In all, about 5,500 compounds went through this assay and about 2,000 (36%) were called active. Not shown: some 18% with an inconclusive outcome. The list shows a part of the results.
// boundary case: normalized growth equal to 1 maps to Criterion not met; strictly smaller maps to Criterion met

compound: C=C(C)c1cc2cc(C(C)=O)c(O)cc2o1
assignedClass: Criterion met
--
compound: COc1c2occc2cc2ccc(=O)oc12
assignedClass: Criterion met
--
compound: COc1cc(OC)c(-c2c(OC)cc(OC)cc2OC)c(OC)c1
assignedClass: Criterion not met
--
compound: C[C@]12CCC3C(CC[C@H]4CC(=O)CC[C@]34C)C1CCC2=O (stereo not given in full)
assignedClass: Criterion met
--
compound: COc1cc2ccc(=O)oc2c2ccoc12
assignedClass: Criterion met
--
compound: CN1CCN(CCCN2c3ccccc3Sc3ccc(Cl)cc32)CC1
assignedClass: Criterion met

###

- procedureText: chemical genetic growth profiling, strain panel (AID 1159580);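 note: tested at 20 µM; growth read once vehicle control cultures reached saturation at 30 °C; 1 = growth at the plate median or of vehicle wells; lower values mean less growth of the strain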
- details: S. cerevisiae deletion strains, growth OD, locus YPL055C, strain LGE1, hits give low values
Out of some 5,500 compounds screened, about 2,000 (36%) were called active. About 18% were inconclusive and are not listed. Some of the results follow.

compound: COc1cc(Cl)c(Cl)cc1Cl
normalized growth: 1.1 (inactive)

compound: O=c1cc(-c2ccc(O)cc2)oc2cc(O[C@@H]3O[C@H](CO)[C@@H](O)[C@H](O)[C@H]3O[C@@H]3OC[C@](O)(CO)[C@H]3O)cc(O)c12
normalized growth: 1.04 (inactive)

compound: O=[N+]([O-])c1ccc(C2N(Cc3ccccc3)CCC3CCCCN32)cc1 (stereo not drawn)
normalized growth: 0.985 (inactive)

compound: CCOC(=N)c1ccc(F)c(Cl)c1
normalized growth: 1.02 (inactive)

compound: CNCCNS(=O)(=O)c1cccc2cnccc12
normalized growth: 1.01 (inactive)

compound: NC(=S)Nc1cc(Cl)ccc1Cl
normalized growth: 0.835 (inactive)

compound: CCOc1ccc(Cc2nccc3cc(OCC)c(OCC)cc23)cc1OCC
normalized growth: 0.906 (inactive)

compound: CC[C@@H]1Cc2cc(O)ccc2C2=C1c1ccc(O)cc1C[C@H]2CC
normalized growth: 1.01 (inactive)

compound: COc1ccc2[nH]cc(CCNC(C)=O)c2c1
normalized growth: 1.04 (inactive)

compound: CCCN(CCC)C1CCc2ccc(O)cc2C1 (stereo not drawn)
normalized growth: 1.02 (inactive)

compound: CCCCCN=C(N)N/N=C\c1c[nH]c2ccc(OC)cc12
normalized growth: 0.993 (inactive)

compound: N#CCCNc1cc(C(F)(F)F)cc(C(F)(F)F)c1
normalized growth: 0.893 (inactive)

compound: CC(C)(O)CC[C@@H](O)[C@](C)(O)C1CC[C@@]2(O)C3=CC(=O)C4C[C@@H](O)[C@@H](O)C[C@]4(C)C3CC[C@]12C (stereo partly drawn)
normalized growth: 1.04 (inactive)

compound: COc1ccc(/C(C#N)=C/c2ccc(OC)c(OC)c2)cc1
normalized growth: 0.9 (inactive)

compound: COc1ccc(Cc2nccc3cc(OC)c(OC)cc23)cc1OC
normalized growth: 0.983 (inactive)

compound: NNC(=S)Nc1cc(C(F)(F)F)ccc1Cl
normalized growth: 0.786 (active)

compound: COC(=O)c1csc2c(C(F)(F)F)cc(N3CCN(S(=O)(=O)c4ccc(C)cc4)CC3)nc12
normalized growth: 0.993 (inactive)

compound: CN(C)c1nc(N(C)C)nc(N(C)C)n1
normalized growth: 1.01 (inactive)

compound: Cc1ccc(S(=O)(=O)/C(C#N)=N\O)cc1
normalized growth: 1.11 (inactive)

compound: COc1ccc(-c2c(C(=O)O)sc(SC)c2C#N)cc1
normalized growth: 1.1 (inactive)

compound: Cc1ccc(/C(C#N)=C2C=C/C(=N/O)C(Cl)=C\2Cl)cc1
normalized growth: 0.949 (inactive)

compound: CCNc1nc(Cl)nc(NC(C)C)n1
normalized growth: 1.03 (inactive)

compound: CCOc1nc2cccc(C(=O)OC(C)OC(=O)OC3CCCCC3)c2n1Cc1ccc(-c2ccccc2-c2nn[nH]n2)cc1 (stereo not drawn)
normalized growth: 0.988 (inactive)

compound: O=C(O)C12CC3CC(CC(Br)(C3)C1)C2
normalized growth: 0.976 (inactive)

compound: COc1ccc(/C=N\NC(=O)CC#N)cc1OC
normalized growth: 1.15 (inactive)

compound: CC(C)(C)c1cc(C(C)(C)C)n(-c2ccc(N=Cc3cc(Br)cc(Br)c3O)cc2)n1
normalized growth: 0.172 (active)

compound: COC(=O)C1=CO[C@@H](O[C@@H]2O[C@H](CO)[C@@H](O)[C@H](O)[C@H]2O)[C@@H]2[C@@H](C)[C@@H](O)C[C@H]12
normalized growth: 1.01 (inactive)

compound: COc1ccc(/C=C(\C#N)c2nc3ccccc3[nH]2)cc1OC
normalized growth: 0.885 (inactive)

compound: CSCCC(NC=O)C(=O)NC(CC(C)C)C(=O)NC(Cc1ccccc1)C(=O)O (stereo not drawn)
normalized growth: 1.01 (inactive)

compound: CC(C)(C)c1ccc(C(=O)N/N=C\c2cc(Cl)cc(Cl)c2O)cc1
normalized growth: 0.858 (inactive)

compound: O=C(NC(=S)Nc1ccc(Cl)cc1)c1ccc([N+](=O)[O-])o1
normalized growth: 0.937 (inactive)

compound: O=C1C=CC(=O)C=C1
normalized growth: 0.979 (inactive)

compound: CC(=O)NN(C)c1ccc(C(F)(F)F)cc1[N+](=O)[O-]
normalized growth: 0.989 (inactive)

###

- procedureText: chemical genetic growth profiling, strain panel (AID 1159580);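 note: tested at 20 µM; growth read once vehicle control cultures reached saturation at 30 °C; 1 = growth at the plate median or of vehicle wells; lower values mean less growth of the strain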
- details: S. cerevisiae deletion strains, growth OD, locus YHR094C, strain hxt1
Out of some 5,500 compounds screened, about 2,000 (36%) were called active. About 18% were inconclusive and are not listed. Cut-off read from the data, not from the text of the source: active = normalized growth mostly below about 0.91 (no sharp cut-off); inconclusive = no clear call, values can overlap the other calls; inactive = mostly above about 0.92. The list shows a part of the results.
Outcomes: Y for active, N for inactive

compound: COc1c2occc2cc2ccc(=O)oc12
assignedClass: N

compound: C[C@]12CCC3C(CC[C@H]4CC(=O)CC[C@]34C)C1CCC2=O (some centres not stated)
assignedClass: N

compound: CC1=C2CCC3C(CC[C@]4(C)C(=O)CCC34)[C@@]2(C)CCC1=O (some centres not stated)
assignedClass: N

compound: CCCC(=O)Nc1ncnc2c1ncn2C1O[C@@H]2COP(=O)(O)O[C@H]2[C@H]1OC(=O)CCC (some centres not stated)
assignedClass: N

compound: N#C/C(=C\c1ccc(O)cc1)C(=O)O
assignedClass: N

compound: O=C1OC(=O)C2C3CCC(O3)C12 (configuration not stated)
assignedClass: N

compound: CCOc1ccc(Cc2nccc3cc(OCC)c(OCC)cc23)cc1OCC
assignedClass: N

compound: COc1cc2ccc(=O)oc2c2ccoc12
assignedClass: N

compound: CCCCC(=O)O[C@H]1CCC2C3CCc4cc(O)ccc4C3CC[C@@]21C (some centres not stated)
assignedClass: N

compound: Cn1c(=O)[nH]c(=O)c2[nH]cnc21
assignedClass: N

compound: O=C(CCCN1CC=C(n2c(=O)[nH]c3ccccc32)CC1)c1ccc(F)cc1
assignedClass: N

compound: CN(C)c1nc(N(C)C)nc(N(C)C)n1
assignedClass: N

compound: C[C@]12C=CC(=O)C=C1CCC1C2C(=O)C[C@@]2(C)C1CC[C@]2(O)C(=O)CO (some centres not stated)
assignedClass: N

compound: Cn1cnc([N+](=O)[O-])c1Sc1ncnc2nc[nH]c12
assignedClass: N

compound: CC(C)=CCOc1c2occc2cc2ccc(=O)oc12
assignedClass: Y

compound: Cn1nnnc1SCC1=C(C(=O)O)N2C(=O)C(NC(=O)C(OC=O)c3ccccc3)C2SC1 (configuration not stated)
assignedClass: N

compound: COc1cc2ccc(=O)oc2cc1O
assignedClass: N

###

- procedureText: chemical genetic growth profiling, strain panel (AID 1159580);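 note: tested at 20 µM; growth read once vehicle control cultures reached saturation at 30 °C; 1 = growth at the plate median or of vehicle wells; lower values mean less growth of the strain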
- details: S. cerevisiae deletion strains, growth OD, locus YDL005C, strain med2, hits give low values
About 2,000 (36%) of roughly 5,500 compounds were called active. Another 18% or so got no clear call; they are omitted. The list shows a part of the results.
reportedEndpoint: normalized growth

molecule: CC(C)=CCOc1cc2oc(=O)ccc2cc1O
quantitativeReadout: 0.956
--
molecule: CC(=O)Oc1ccc2c(c1)CCC1C2CC[C@@]2(C)C1CC[C@@H]2OC(C)=O (some centres not stated)
quantitativeReadout: 1
--
molecule: COc1c(O)cc(O)cc1O
quantitativeReadout: 0.983
--
molecule: CC(=O)OC1CCC2C3CCc4cc(O)ccc4C3CCC12C (configuration not stated)
quantitativeReadout: 0.973
--
molecule: COc1ccc2ccc(=O)oc2c1CC=C(C)C
quantitativeReadout: 0.948
--
molecule: CC(C)=CCC/C(C)=C/COc1ccc2ccc(=O)oc2c1
quantitativeReadout: 1
--
molecule: CC(C)CCCC(C)[C@H]1CCC2C3CC[C@H]4CC(=O)CC[C@]4(C)C3CC[C@@]21C (some centres not stated)
quantitativeReadout: 0.986
